Target: T1, human LILRB1 (human, UniProt Q8NHL6 24-650)
T1 construct: whole, on cells; also called hLILRB1
T1 sequence (Q8NHL6 24-650): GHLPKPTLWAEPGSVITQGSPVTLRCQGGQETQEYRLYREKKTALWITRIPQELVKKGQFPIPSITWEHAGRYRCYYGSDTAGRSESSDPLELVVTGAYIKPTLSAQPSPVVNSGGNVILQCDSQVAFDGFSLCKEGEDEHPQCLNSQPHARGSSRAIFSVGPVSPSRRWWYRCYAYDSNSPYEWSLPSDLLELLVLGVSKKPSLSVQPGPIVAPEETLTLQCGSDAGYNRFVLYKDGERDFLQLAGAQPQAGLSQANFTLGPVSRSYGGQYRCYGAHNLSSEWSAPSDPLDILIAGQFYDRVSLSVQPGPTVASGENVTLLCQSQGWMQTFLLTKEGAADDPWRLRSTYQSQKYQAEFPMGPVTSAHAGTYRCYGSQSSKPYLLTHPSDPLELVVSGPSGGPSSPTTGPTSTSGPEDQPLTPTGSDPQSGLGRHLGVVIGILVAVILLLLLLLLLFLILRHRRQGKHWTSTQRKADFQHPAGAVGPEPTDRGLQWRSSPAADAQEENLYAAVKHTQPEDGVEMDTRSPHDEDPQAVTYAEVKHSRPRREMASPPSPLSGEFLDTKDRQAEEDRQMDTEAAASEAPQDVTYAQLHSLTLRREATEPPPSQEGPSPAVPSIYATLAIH
Assay: FACS, 293F-hLILRB1 cells
ATTRIBUTE_MEASURED: MFI (MFI)
Write down the numeric answer in MFI and omit the unit.

Query: Identify the reported MFI for the following entry. 27-D11-C2-A10 (antibody, V domains shown, mouse monoclonal hybridoma antibody) VH: EVQLVESGGGLVQPGGSRKLSCAASGFTFSVFGVHWVRQAPEKGLEWVAYISSGSNTIHYADTVKGRFTISRDIPKNTLFLQMTSLRSEDTAMYYCARSSGTGAMDYWGQGTSVTVSS VL: DIQMTQSTSSLSASLGDRVSISCRASQDISNYLNWYQQKPDGAVKLLIYYTSRLHSGVPSRFSGSGSGTDYSLTISNLDQEDIATYFCQQGNTLPWTFGGGTKLELK
Reply: 20.8

Others:
Query: Identify the reported MFI for the following entry. 25-E7-A10-H6 (antibody, V domains shown, mouse monoclonal hybridoma antibody) VH: EVQLVESGGGLVQPGGSRKLSCAASGFTFSTFGMHWVRQAPEKGLEWVAYISSGSSTIYYADTVKGRFTISRDNPKNTLFLQMTSLRSEDTAMYYCARSTGTGAMDYWGQGTSVTVSS VL: DIQMTQTTSSLSASLGDRVTISCRASQDISKYLNWYQQKPDGTVKLLIYYTSRLHSGVPSRFSGSGSGTDYSLTISNLEQEDIATYFCQQGNTLPWTFGGGTKLEIK
Reply: 22.5
